- Tested on: MOLT-4 leukemia
- assay notes: NCI tumour cell line growth inhibition, 48 h; in the data active means GI50 below about 0.43 µM; inactive means the rest
Answer with one of the outcomes 1.0 for active, 0.0 for inactive

INPUT: Answer briefly: the call reported for `O=[N+]([O-])c1ccccc1/C=N\NC(=S)N/N=C/c1ccccc1[N+](=O)[O-]` in this assay.
OUTPUT: 0.0

INPUT: Answer briefly: the call reported for `ClCCCN1CCN(CCCl)CC1` in this assay.
OUTPUT: 0.0

INPUT: Answer briefly: the call reported for `CNC(=O)[C@H](Cc1c[nH]c2ccccc12)NC(=O)[C@@H](CC(=O)NO)CC(C)C` in this assay.
OUTPUT: 0.0

###

- System: ACHN renal
- assay notes: NCI tumour cell line growth inhibition, 48 h
readout kind: TGI

Some solved cases for reference:
N=c1oc2cc(O)ccc2cc1C(=O)Nc1ccccn1 :: > 100 µM
N=C1OC(CN2CCN(c3ccccc3)CC2)CN1C(=O)Nc1ccccc1 (configuration not stated) :: > 100 µM
C=CCCC(O)c1cc(C)c(O)c(C)c1 (configuration not stated) :: > 100 µM
CCC(C)C(Nc1c2ccccc2nc2c(C(=O)NCCN(C)C)cccc12)C(=O)O (configuration not stated) :: > 100 µM

Briefly, TGI measured for `COc1ccc(-n2cc(-c3cc(OC)c(OC)c(OC)c3)nc2SCc2cccc(C#N)c2)cc1OC` : > 100 µM

Briefly, TGI measured for `O=C1/C(=C/c2ccc(F)cc2)COc2ccc(O)c(O)c21` : 2.89 µM

Briefly, TGI measured for N[C@H]1CCC[C@@H](O)C1O (some centres not stated) : > 100 µM

Briefly, TGI measured for `CCOC(=O)/C(C(N)=O)=C(\O)C(=O)/C=C(\O)c1ccc(Cl)cc1` : 39.7 µM
